FYI, the data here is from ChEMBL document CHEMBL4513216.

# experimental details: Toxicity liver stage against HepG2, at 10uM
# Type: cell-based
# Parameters: test concentration 10 uM, cell line HepG2-A16-CD81EGFP
# details: human, HepG2-A16-CD81EGFP cells; read-out: INHIBITION
Listing of entries alongside the reported cytotoxicity at 10 µM.
measured property: cytotoxicity at 10 µM (%)

compound=CNC(=O)CN1CC[C@H]2CN(C(=O)c3ccccc3F)C[C@H]2C1 measured=-1.34
compound="Cc1noc(C)c1-c1ccc(C2CCCN2C(=O)c2cccnn2)nc1 (centres undefined)" measured=-18.9
compound=CS(=O)(=O)N1CCCn2nc(CNc3ncccn3)cc2C1 measured=4.83
compound=Cc1nc(C2(NCC(=O)NC(=O)NCC(F)(F)F)CCCCC2)no1 measured=18.4
compound=O=C([C@@H]1CCO[C@@H]2CCN(Cc3cccs3)C[C@H]21)N1CCCCO1 measured=5.77
compound=CC(C)=CCN1C(=O)[C@@H]2CC[C@H]1CN(c1ncccc1F)C2 measured=9.72
compound=CCOC(=O)CNC(=O)C1CN(C(=O)c2cnccn2)C1 measured=2.63
compound="Cc1ccc(C(=O)N2CC(=O)N(Cc3ccco3)CC(O)C2)cc1 (centres undefined)" measured=-0.817
compound=CCC1=N[C@@]2(CC[C@@H]3CN(S(=O)(=O)CC(C)C)C[C@@H]32)C(=O)N1CC measured=0.167
